Target: T1, HCoV-OC43 spike antigens (bead panel) (HCoV-OC43, UniProt P36334 14-1297)
T1 sequence: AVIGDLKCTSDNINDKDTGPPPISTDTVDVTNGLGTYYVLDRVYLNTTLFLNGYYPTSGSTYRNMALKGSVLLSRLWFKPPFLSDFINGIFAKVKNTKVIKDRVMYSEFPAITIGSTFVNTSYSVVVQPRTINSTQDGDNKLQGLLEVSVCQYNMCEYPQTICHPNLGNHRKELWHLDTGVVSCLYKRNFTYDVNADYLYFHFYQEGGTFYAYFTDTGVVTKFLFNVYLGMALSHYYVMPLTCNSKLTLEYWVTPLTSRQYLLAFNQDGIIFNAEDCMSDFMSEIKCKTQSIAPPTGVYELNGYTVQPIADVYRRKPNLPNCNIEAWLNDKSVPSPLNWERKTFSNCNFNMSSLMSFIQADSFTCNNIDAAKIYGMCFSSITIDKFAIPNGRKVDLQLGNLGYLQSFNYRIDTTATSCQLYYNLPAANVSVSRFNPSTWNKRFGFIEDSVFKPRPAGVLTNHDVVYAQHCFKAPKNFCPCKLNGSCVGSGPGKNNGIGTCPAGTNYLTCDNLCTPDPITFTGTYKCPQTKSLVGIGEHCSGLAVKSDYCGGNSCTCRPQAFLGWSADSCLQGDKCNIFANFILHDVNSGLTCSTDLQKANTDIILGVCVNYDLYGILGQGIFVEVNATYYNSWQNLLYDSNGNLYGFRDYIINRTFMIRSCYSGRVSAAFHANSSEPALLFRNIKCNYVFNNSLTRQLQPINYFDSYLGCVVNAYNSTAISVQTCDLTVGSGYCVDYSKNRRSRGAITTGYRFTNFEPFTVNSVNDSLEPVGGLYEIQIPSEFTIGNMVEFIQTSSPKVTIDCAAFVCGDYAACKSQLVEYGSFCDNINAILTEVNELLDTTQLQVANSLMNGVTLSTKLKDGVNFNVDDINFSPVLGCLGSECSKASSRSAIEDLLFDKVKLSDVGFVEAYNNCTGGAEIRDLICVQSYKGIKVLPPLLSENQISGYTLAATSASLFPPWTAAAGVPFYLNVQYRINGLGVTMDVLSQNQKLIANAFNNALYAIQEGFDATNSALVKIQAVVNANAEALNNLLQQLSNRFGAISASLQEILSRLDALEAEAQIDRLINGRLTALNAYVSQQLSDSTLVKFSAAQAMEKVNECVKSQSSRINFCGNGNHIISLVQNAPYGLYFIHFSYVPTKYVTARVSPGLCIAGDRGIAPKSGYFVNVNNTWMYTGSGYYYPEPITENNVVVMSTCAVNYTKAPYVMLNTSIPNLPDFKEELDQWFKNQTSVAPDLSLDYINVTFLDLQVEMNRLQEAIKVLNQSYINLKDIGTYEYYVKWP
Experiment: multiplex bead assay
readout: binding result

COV_2143 (antibody, V domains shown, human IgG1) VH: EVQLVESGGGVVQPGRSLRLSCAASGFTFNSFAMLWVRQAPGKGLEWVALFSYDGSNKYYADSVKGRFTISRDNSKNTLYLQMNNLRAVDTAVYYCARASPYDINGYYLHRIAFDIWGQGTMVTVSS VL: QSVLMQPPSVSGAPGQRVTISCTGSSSNIGAGYDVHWYQQLPGTAPKLLMYGNSNRPSGVPDRFSGSKSGTSASLAITGLQAEDEADYYCQSYDSGLSGWVFGGGTKLTVLG	no binding
COV_2169 (antibody, V domains shown, human IgG1) VH: EVQLVESGGGVVQPGRSLRLSCAASGFTFSRYAMHWVRQAPGKGLEWVAVISYEGSNKYYADSVKGRFTISRNNSNNTLSLQMNSLRPDDTAVYYCVRSGGHYFDAFDLWGQGTMVTVSS VL: EIVLTQSPGTLSLSPGERATLSCRASQSVSRNYVAWYQQKPGQAPRLLIYGASSRATGIPDRFSGSGSGTDFTLTISRLEPEDFALYYCQQYGSSYTFGQGTKLEIKR	no binding
COV_1136 (antibody, V domains shown, human IgG1) VH: EVQLVESGGGLVKPGGSLRLSCAASGFTFSDCNMNWVRQAPGKGLEWVSSISSRSSYIYYADSVKGRFTISRDNAKNSLYLQMNSLRAEDTAVYSCAREASGAYYFDRSGYFDYWGQGTLVTVSP VL: DIQMTQSPSTLSASVGDRVTITCRASQSISSWLAWYQQKPGKAPNLLIYKASSLESGVPSRFSGSGSGTEFTLTISSLQPDDFATYYCQQYNTYPWTFGQGTKVEIKR	no binding
